Taken from the supplement of paper PMC7877785.

Experiment: self-splicing fitness, log relative to wild type (ln ratio); higher = more splicing; Tetrahymena group I intron in knt gene, E. coli kanamycin selection, DiMSum; sequences stand for … in CUCUCU…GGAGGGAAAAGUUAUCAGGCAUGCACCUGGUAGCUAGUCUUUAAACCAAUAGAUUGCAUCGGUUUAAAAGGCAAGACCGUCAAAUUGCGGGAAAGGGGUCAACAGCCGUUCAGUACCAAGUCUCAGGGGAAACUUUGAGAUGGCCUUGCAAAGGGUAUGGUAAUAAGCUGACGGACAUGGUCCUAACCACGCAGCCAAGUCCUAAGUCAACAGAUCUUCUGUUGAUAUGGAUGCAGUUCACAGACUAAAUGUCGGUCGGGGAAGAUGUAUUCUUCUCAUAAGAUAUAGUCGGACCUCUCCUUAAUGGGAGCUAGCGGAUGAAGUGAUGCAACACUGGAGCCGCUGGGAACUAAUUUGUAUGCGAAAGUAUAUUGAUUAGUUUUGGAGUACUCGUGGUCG;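 also: selection with 25 µg/mL kanamycin versus none on LB agar overnight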
Details: 37 °C
measured.attribute: self-splicing fitness (ln)

INSERT INTO assay_data (sequence_string, measured_attribute, number) VALUES
  ('CUACAGCAAUAUUACGACCU', 'self-splicing fitness (ln)', -0.863),
  ('GUUAAGCAAUAUUACGUAGG', 'self-splicing fitness (ln)', -1.16),
  ('AAUUAGCAAUAUUACGCCGA', 'self-splicing fitness (ln)', -0.981),
  ('CACGAGCAAUAUUACGGCAA', 'self-splicing fitness (ln)', -2.09),
  ('GGGGAGCAAUAUUACGAACU', 'self-splicing fitness (ln)', -1.76);
